# assay: Toxicity in iv dosed cynomolgus monkey assessed as maximum tolerated dose administered for 14 days
# Type: organism-based, Macaca fascicularis
# test_parameters: in vivo, time 14 day
recorded_metric: MTD at 336 h

Qu. Record request: MTD at 336 h value, item "C[C@H](O)c1nccn1Cc1cc(-c2ccc(C#C[C@@H]3[C@H]4CN(CCCC(=O)O)C[C@@H]34)cc2)on1"
Ans. > 400 mg/kg

###

# assay: Cardiotoxicity in iv dosed Hartley guinea pig assessed as increase in QT prolongation measured after 30 mins
# Type: toxicity, organism-based, Cavia porcellus
# test_parameters: in vivo, 0.5 h
recorded_metric: Activity

C[C@H](O)CN1C[C@@H]2[C@@H](C#Cc3ccc(-c4cc([C@@H](CN)n5ccnc5[C@H](C)O)no4)cc3)[C@@H]2C1    Toxic
C[C@H](O)c1nccn1[C@H](CN)c1cc(-c2ccc(C#C[C@H]3C[C@H](O)C3)cc2)on1    Toxic
C[C@H](O)c1nccn1[C@H](CN)c1cc(-c2ccc(C#C[C@@H]3[C@H]4CN(C=O)C[C@@H]34)cc2)on1    Toxic

###

# assay: Plasma concentration in Hartley guinea pig at 150 mg/kg, iv measured after 30 mins by LC-MS/MS analysis
# Format: ADME, organism-based, Cavia porcellus
recorded_metric: concentration at 0.5 h
Show the value, then the unit it is measured in.

Qu. Dear colleague, I am looking for the recorded concentration at 0.5 h of the following compound: "C[C@H](O)c1nccn1Cc1cc(-c2ccc(C#C[C@@H]3[C@H]4CN(CCCC(=O)O)C[C@@H]34)cc2)on1"
Ans. 378 µg/mL

###

# assay: Protein binding in human serum at 1 ug/ml incubated for 4 hrs by LC-MS/MS analysis
# Type: ADME, cell-free
# test_parameters: at 1 µg/mL, read-out: PB (converted)
Known fraction unbound at 4 h, 1 ug/ml of a selection of compounds

Look over these answered cases.
C[C@H](O)c1nccn1Cc1cc(-c2ccc(C#CC3(N)CC3)cc2)no1    0.115
C[C@H](O)c1nccn1[C@H](CN)c1cc(-c2ccc(C#CC34CC(N)(C3)C4)cc2)on1    0.103
COCC(O)CN1C[C@@H]2[C@@H](C#Cc3ccc(-c4cc(Cn5ccnc5[C@H](C)O)no4)cc3)[C@@H]2C1 (mixture of isomers)    0.065

Qu. What does the record list as fraction unbound at 4 h, 1 ug/ml for "C[C@H](O)c1nccn1[C@H](CN)c1cc(-c2ccc(C#C[C@H]3C[C@H](O)C3)cc2)on1" ?
Ans. 0.074

###

# assay: Cardiotoxicity in iv dosed Hartley guinea pig assessed as decrease in heart rate measured after 30 mins
# Format: toxicity, organism-based, Cavia porcellus
# test_parameters: in vivo, 0.5 h
recorded_metric: Activity

C[C@H](O)c1nccn1[C@H](CN)c1cc(-c2ccc(C#C[C@@H]3[C@H]4CN(C=O)C[C@@H]34)cc2)on1    Toxic
C[C@H](O)c1nccn1[C@H](CN)c1cc(-c2ccc(C#C[C@H]3C[C@H](O)C3)cc2)on1    Toxic
C[C@H](O)CN1C[C@@H]2[C@@H](C#Cc3ccc(-c4cc([C@@H](CN)n5ccnc5[C@H](C)O)no4)cc3)[C@@H]2C1    Toxic

###

# assay: Plasma concentration in Hartley guinea pig at 135 mg/kg, iv measured after 30 mins by LC-MS/MS analysis
# Format: ADME, organism-based, Cavia porcellus
recorded_metric: concentration at 0.5 h (µg/mL)
Just the number in µg/mL, nothing appended.

Qu. Given the molecule "C[C@H](O)CN1C[C@@H]2[C@@H](C#Cc3ccc(-c4cc([C@@H](CN)n5ccnc5[C@H](C)O)no4)cc3)[C@@H]2C1" , what is its reported concentration at 0.5 h?
Ans. 132
